compounds and their reported fitness
System: B. subtilis 168;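 note: OD595 on entry to stationary phase over no-drug wells; at most 1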
assay_comment: fitness (endpoint OD595 vs no drug) (fraction); higher = more growth
assay_conditions: first compound 37.5 µg/mL; partner 1.25 µg/mL; main component drawn
measure_name: fitness

INSERT INTO results (compound, obs_value) VALUES
  ('CC[C@H](C)[C@H](N)C1=N[C@H](C(=O)N[C@@H](CC(C)C)C(=O)N[C@H](CCC(=O)O)C(=O)N[C@H](C(=O)N[C@H]2CCCCNC(=O)[C@H](CC(N)=O)NC(=O)[C@@H](CC(=O)O)NC(=O)[C@H](Cc3cnc[nH]3)NC(=O)[C@@H](Cc3ccccc3)NC(=O)[C@H]([C@@H](C)CC)NC(=O)[C@@H](CCCN)NC2=O)[C@@H](C)CC)CS1 [Bacitracin] + Cc1ncc([N+](=O)[O-])n1CCO [Metronidazole]', 0.931),
  ('CC[C@H](C)[C@H](N)C1=N[C@H](C(=O)N[C@@H](CC(C)C)C(=O)N[C@H](CCC(=O)O)C(=O)N[C@H](C(=O)N[C@H]2CCCCNC(=O)[C@H](CC(N)=O)NC(=O)[C@@H](CC(=O)O)NC(=O)[C@H](Cc3cnc[nH]3)NC(=O)[C@@H](Cc3ccccc3)NC(=O)[C@H]([C@@H](C)CC)NC(=O)[C@@H](CCCN)NC2=O)[C@@H](C)CC)CS1 [Bacitracin] + CN1C2=CC=CC=C2N=C3C1=CC=CC3=O [Pyocyanin]', 0.9),
  ('CC[C@H](C)[C@H](N)C1=N[C@H](C(=O)N[C@@H](CC(C)C)C(=O)N[C@H](CCC(=O)O)C(=O)N[C@H](C(=O)N[C@H]2CCCCNC(=O)[C@H](CC(N)=O)NC(=O)[C@@H](CC(=O)O)NC(=O)[C@H](Cc3cnc[nH]3)NC(=O)[C@@H](Cc3ccccc3)NC(=O)[C@H]([C@@H](C)CC)NC(=O)[C@@H](CCCN)NC2=O)[C@@H](C)CC)CS1 [Bacitracin] + COc1cccc2c1C(=O)c1c(O)c3c(c(O)c1C2=O)C[C@@](O)(C(=O)CO)C[C@@H]3O[C@H]1C[C@H](N)[C@H](O)[C@H](C)O1 [Doxorubicin]', 0.851);

====

molecules and their reported Bliss interaction score
System: S. aureus DSM 20231;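 note: first quartile when negative (synergy) and third quartile when positive (antagonism)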
assay_comment: Bliss interaction score (quartile over a dose matrix) (fitness difference); higher = more antagonism (negative = synergy)
measure_name: Bliss interaction score

INSERT INTO assay_data (molecule, obs_value) VALUES
  ('CO[C@@H]1[C@@H](OC(N)=O)[C@@H](O)[C@H](Oc2ccc3c(O)c(NC(=O)c4ccc(O)c(CC=C(C)C)c4)c(=O)oc3c2C)OC1(C)C [Novobiocin] + CCCSc1nc(N[C@@H]2C[C@H]2c2ccc(F)c(F)c2)c2nnn([C@@H]3C[C@H](OCCO)[C@@H](O)[C@H]3O)c2n1 [Ticagrelor]', 0.177),
  ('CN[C@@H]1[C@H](O[C@H]2[C@H](O[C@H]3[C@H](O)[C@@H](O)[C@H](N=C(N)N)[C@@H](O)[C@@H]3N=C(N)N)O[C@@H](C)[C@]2(O)C=O)O[C@@H](CO)[C@H](O)[C@H]1O [Streptomycin] + Cc1ccc(C(C)C)c(O)c1 [Thymol]', -0.425);

====

System: S. aureus DSM 20231;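 note: first quartile when negative (synergy) and third quartile when positive (antagonism)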
assay_comment: Bliss interaction score (quartile over a dose matrix) (fitness difference); higher = more antagonism (negative = synergy)
assay_conditions: main component drawn
measure_name: Bliss interaction score

INSERT INTO assay_data (compound, measure_name, obs_value) VALUES
  ('CC[C@H](C)[C@H](N)C1=N[C@H](C(=O)N[C@@H](CC(C)C)C(=O)N[C@H](CCC(=O)O)C(=O)N[C@H](C(=O)N[C@H]2CCCCNC(=O)[C@H](CC(N)=O)NC(=O)[C@@H](CC(=O)O)NC(=O)[C@H](Cc3cnc[nH]3)NC(=O)[C@@H](Cc3ccccc3)NC(=O)[C@H]([C@@H](C)CC)NC(=O)[C@@H](CCCN)NC2=O)[C@@H](C)CC)CS1 [Bacitracin] + N[C@@H]1CONC1=O [CycloserineD]', 'Bliss interaction score', -0.0841),
  ('CC[C@H](C)[C@H](N)C1=N[C@H](C(=O)N[C@@H](CC(C)C)C(=O)N[C@H](CCC(=O)O)C(=O)N[C@H](C(=O)N[C@H]2CCCCNC(=O)[C@H](CC(N)=O)NC(=O)[C@@H](CC(=O)O)NC(=O)[C@H](Cc3cnc[nH]3)NC(=O)[C@@H](Cc3ccccc3)NC(=O)[C@H]([C@@H](C)CC)NC(=O)[C@@H](CCCN)NC2=O)[C@@H](C)CC)CS1 [Bacitracin] + CO[C@@H]1[C@@H](OC(N)=O)[C@@H](O)[C@H](Oc2ccc3c(O)c(NC(=O)c4ccc(O)c(CC=C(C)C)c4)c(=O)oc3c2C)OC1(C)C [Novobiocin]', 'Bliss interaction score', -0.0399);
